- tested system: Human Cbl-b (residues 40-426) (Homo sapiens (Human), UniProt Q13191)
- assay procedure: Cbl-b SPR assay
- Format: binding
- condition description: C-cbl SPR Kd vs Cbl-b SPR Kd
outcome measure: Fold of selectivity (×)
Report the figure in × without appending any unit label.

## Task Which measured Fold of selectivity value corresponds to Cn1cnnc1[C@H](c1cccc(N2Cc3c(cc([C@H](NC4(C)CCC4)C4CC4)cc3C(F)(F)F)C2=O)c1)C1COC1 (single isomer, unassigned) ?
## Result 18

###

- tested system: Cbl-b (Homo sapiens (Human), UniProt Q13191)
- Sequence (Q13191 40-426): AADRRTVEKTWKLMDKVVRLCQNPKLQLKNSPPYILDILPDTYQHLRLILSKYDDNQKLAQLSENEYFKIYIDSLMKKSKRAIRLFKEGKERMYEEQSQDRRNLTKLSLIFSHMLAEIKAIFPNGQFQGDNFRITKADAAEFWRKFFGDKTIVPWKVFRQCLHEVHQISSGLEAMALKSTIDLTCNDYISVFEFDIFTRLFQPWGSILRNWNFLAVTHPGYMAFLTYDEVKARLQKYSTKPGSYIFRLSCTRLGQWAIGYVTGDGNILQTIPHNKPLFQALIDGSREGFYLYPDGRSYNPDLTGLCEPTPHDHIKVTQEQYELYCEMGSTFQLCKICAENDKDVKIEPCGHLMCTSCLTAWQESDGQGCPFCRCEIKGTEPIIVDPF
- assay procedure: Cbl-b LCK Ub TR-FRET assay (Cbl-b Lck HTRF)
- Format: biochemical
- condition description: ratio C-cbl Lck HTRF IC50 / Cbl-b Lck HTRF IC50
outcome measure: fold-selectivity (Cbl-b over C-cbl) (x)
Respond with the bare value in x.

Cn1cnnc1[C@H](c1cccc(N2Cc3c(cc(CNC4(C)CCC4)cc3C(F)(F)F)C2=O)c1)n1ccnc1 (single isomer, unassigned) [Compound 345] = 4.4
CC[C@@](F)(c1cccc(N2Cc3c(cc(CNC4(C)CCC4)cc3C(F)(F)F)C2=O)c1)c1nncn1C (single isomer, unassigned) [Compound 394] = 0.8
Cn1cnnc1[C@H](CC1(C)COC1)c1cccc(N2Cc3c(cc(CNC4(C)CCC4)cc3C(F)(F)F)C2=O)c1 [Compound 254] = 1.0
CCOc1cc(N2Cc3c(cc(CNC4(C)CCC4)cc3C(F)(F)F)C2=O)cc([C@]2(c3nncn3C)C[C@H](OC)C2)c1 [Compound 202] = 1.8
Cn1cnnc1[C@H](c1cccc(N2Cc3c(cc(CNC4(C)CCC4)cc3C(F)(F)F)C2=O)c1)C1CC(F)C1 (single isomer, unassigned) [Compound 128] = 4.9
Cn1cnnc1[C@H](c1cccc(N2Cc3c(cc(CNC4(C)CCC4)cc3C(F)(F)F)C2=O)c1)C1CCS(=O)(=O)CC1 [Compound 300] = 2.0
Cn1cnnc1[C@]1(c2cccc(N3Cc4c(cc(CNC5(C)CCC5)cc4C(F)(F)F)C3=O)c2)C[C@H](OC(F)(F)F)C1 [Compound 350] = 4.8
CC(C)[C@@](O)(c1cccc(N2Cc3c(cc(CNC4(C)CCC4)cc3C(F)(F)F)C2=O)c1)c1nncn1C [Compound 309] = 3.8
CCc1cc(N2Cc3c(cc(CNC4(C)CCC4)cc3C(F)(F)F)C2=O)cc([C@]2(c3nncn3C)C[C@H](OC)C2)c1 [Compound 236] = 1.7
CCO[C@H]1C[C@](c2cccc(N3Cc4c(cc(CNC5(C)CCC5)cc4C(F)(F)F)C3=O)c2)(c2nncn2C)C1 [Compound 179] = 3.4

## Task Quick check: fold-selectivity (Cbl-b over C-cbl) of Cn1cnnc1[C@@](F)(c1ccccc1)c1cccc(N2Cc3c(cc(CNC4(C)CCC4)cc3C(F)(F)F)C2=O)c1 (single isomer, unassigned) [Compound 157] ?
## Result 1.0

## Task Now this one: CO[C@H]1C[C@@](c2cccc(N3Cc4c(cc([C@@H](C)NC5(C)CCC5)cc4C(F)(F)F)C3=O)c2)(c2nncn2C)C1 (single isomer, unassigned) [Compound 175]
## Result 1.0

###

- tested system: Cbl-b (Homo sapiens (Human), UniProt Q13191)
- assay procedure: Cbl-b LCK Ub TR-FRET assay (Cbl-b Lck HTRF)
- Assay type: biochemical
- condition description: Cbl-b LCK Ub TR-FRET
outcome measure: IC50

These recorded examples may help you get a feel for the data.
Cn1cnnc1[C@@](F)(c1ccccc1)c1cccc(N2Cc3c(cc(CNC4(C)CCC4)cc3C(F)(F)F)C2=O)c1 (single isomer, unassigned) = ≥ 20 µM
Cn1cnnc1[C@@H](C[C@H]1COCCO1)c1cccc(N2Cc3c(cc(CNC4(C)CCC4)cc3C(F)(F)F)C2=O)c1 (single isomer, unassigned) = ≥ 20 µM

Turning now to a further record.
## Task What value of measured IC50 is listed for Cn1cnnc1C1(c2cccc(N3Cc4c(cc(CNC5(C)CCC5)cc4C(F)(F)F)C3=O)c2)C[S+]([O-])C1 (stereo not drawn) ?
## Result 0.029 µM
